protocol.notes: Oral bioavailability of compound was determined in rats
Type: ADME, organism-based
applied.conditions: rat, in vivo
readout.name: bioavailability (%)
Give bare numbers, in %.

If you can, please state the reported bioavailability value of Cc1cc(C)cc(-c2[nH]c3ccc(C(C)(C)C(=O)N4CC5CCC4CC5)cc3c2[C@H](C)CNCCc2cc[n+]([O-])c(C)c2)c1 .
23

* * *

protocol.notes: Half-life of compound was determined in rats
Type: ADME, organism-based
applied.conditions: rat, in vivo
readout.name: half-life (h)
Give bare numbers, in h.

Given the entry Cc1cc(C)cc(-c2[nH]c3ccc(C(C)(C)C(=O)N4CC5CCC4CC5)cc3c2[C@H](C)CNCCc2cc[n+]([O-])c(C)c2)c1 , report its measured half-life.
2

* * *

Give IC50 for every item shown.
tgt: Gonadotropin-releasing hormone receptor (Homo sapiens, UniProt P30968)
Sequence (P30968 whole entry): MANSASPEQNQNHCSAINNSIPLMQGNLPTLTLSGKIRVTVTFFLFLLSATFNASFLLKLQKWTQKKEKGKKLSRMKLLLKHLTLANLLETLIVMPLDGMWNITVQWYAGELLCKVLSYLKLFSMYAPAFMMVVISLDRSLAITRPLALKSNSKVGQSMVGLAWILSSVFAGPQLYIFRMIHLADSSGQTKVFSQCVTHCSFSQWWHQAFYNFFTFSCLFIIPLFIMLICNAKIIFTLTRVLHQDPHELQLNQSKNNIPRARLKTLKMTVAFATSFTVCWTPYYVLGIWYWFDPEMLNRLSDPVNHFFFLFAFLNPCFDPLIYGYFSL
protocol.notes: Concentration required for the inhibition of phosphatidyl inositol hydrolysis in chinese hamster ovary cells expressing human GnRH receptor (Gonadotropin Release Hormone receptor)
Assay type: functional, cell-based
Give bare numbers, in nM.

Examples from the recorded data:
CC(=O)OCc1cc(CCNC[C@@H](C)c2c(-c3cc(C)cc(C)c3)[nH]c3ccc(C(C)(C)C(=O)N4CC5CCC4CC5)cc23)ccn1 ... 22
Cc1cc(C)cc(-c2[nH]c3ccc(C(C)(C)C(=O)N4CC5CCC4CC5)cc3c2[C@H](C)CNCCc2ccnc(CO)c2)c1 ... 7.5
CCc1cc(CCNC[C@@H](C)c2c(-c3cc(C)cc(C)c3)[nH]c3ccc(C(C)(C)C(=O)N4CC5CCC4CC5)cc23)ccn1 ... 19
CC(=O)c1cc(CCNC[C@@H](C)c2c(-c3cc(C)cc(C)c3)[nH]c3ccc(C(C)(C)C(=O)N4CC5CCC4CC5)cc23)ccn1 ... 12
Cc1cc(C)cc(-c2[nH]c3ccc(C(C)(C)C(=O)N4CC5CCC4CC5)cc3c2[C@H](C)CNCCc2ccnc(C)c2)c1 ... 8.7
Cc1cc(C)cc(-c2[nH]c3ccc(C(C)(C)C(=O)N4CC5CCC4CC5)cc3c2[C@H](C)CNCCc2cc[n+]([O-])cc2C)c1 ... 26

// next item, IC50 requested
Entry under review: Cc1cc(C)cc(-c2[nH]c3ccc(C(C)(C)C(=O)N4CC5CCC4CC5)cc3c2[C@H](C)CNCCc2ccnc(C(=O)O)c2)c1 . Reported IC50?
371

* * *

Please go through the items and note down their pIC50.
tgt: Gonadotropin-releasing hormone receptor (Homo sapiens, UniProt P30968)
protocol.notes: Concentration required for the inhibition of I-125 labeled buserelin binding to the human Gonadotropin-releasing hormone receptor
Answers are plain numbers, as −log10 of the molar value.

Worked examples follow.
CC(=O)OCc1cc(CCNC[C@@H](C)c2c(-c3cc(C)cc(C)c3)[nH]c3ccc(C(C)(C)C(=O)N4CC5CCC4CC5)cc23)ccn1 ... 9.40
Cc1cc(C)cc(-c2[nH]c3ccc(C(C)(C)C(=O)N4CC5CCC4CC5)cc3c2[C@H](C)CNCCc2cc[n+]([O-])cc2)c1 ... 9.52
CCc1cc(CCNC[C@@H](C)c2c(-c3cc(C)cc(C)c3)[nH]c3ccc(C(C)(C)C(=O)N4CC5CCC4CC5)cc23)ccn1 ... 8.48
Cc1cc(C)cc(-c2[nH]c3ccc(C(C)(C)C(=O)N4CC5CCC4CC5)cc3c2[C@H](C)CNCCc2ccncc2C)c1 ... 9.10

Give one value of pIC50 per listed compound.
1. Cc1cc(C)cc(-c2[nH]c3ccc(C(C)(C)C(=O)N4CC5CCC4CC5)cc3c2[C@H](C)CNCCc2ccnc(C(C)(C)O)c2)c1
2. CC(=O)c1cc(CCNC[C@@H](C)c2c(-c3cc(C)cc(C)c3)[nH]c3ccc(C(C)(C)C(=O)N4CC5CCC4CC5)cc23)ccn1
3. Cc1cc(C)cc(-c2[nH]c3ccc(C(C)(C)C(=O)N4CC5CCC4CC5)cc3c2[C@H](C)CNCCc2cc(C)[n+]([O-])c(C)c2)c1

9.15
9.22
9.30
